- Tested on: 786-0 renal
- protocol.description: NCI tumour cell line growth inhibition, 48 h
Give measured TGI for each item. Keep answers brief.
State the answer as a number, implicitly in µM.

Request: Data request, read-out TGI, for O=[N+]1[C@H](c2ccccc2)[C@H](c2ccccc2)N1[O-]
Response: 26.8

Request: Data request, read-out TGI, for COc1cc(NC2CCCCC2O)c2nc(-c3ccc(Cl)cc3)ccc2c1 (stereo not given)
Response: 18.6

Request: Data request, read-out TGI, for O=C1C(=O)C2(CC1S(=O)(=O)c1ccccc1)c1ccccc1-c1ccccc12 (stereo not given)
Response: 82.5

Request: Data request, read-out TGI, for CCOc1nc2c(N3CCCC3)nc(N3CCNCC3)nc2nc1NCc1ccccc1
Response: 2.68

---

Give measured TGI for each item. Keep answers brief.
- Test system: EKVX NSCLC
- protocol.description: NCI tumour cell line growth inhibition, 48 h

Request: Data request, read-out TGI, for CC1OC(OC2C(O)C(O)C(O)C(O)C2O)C(N)CC1N=C(N)C(=O)O (centres undefined)
Response: > 100 µM

Request: Data request, read-out TGI, for COc1cc(-c2nn(-c3cccc(NC(=O)CCNc4ccc(N5CCOCC5)cc4)c3)cc2-c2ccncc2)ccc1Cl
Response: > 100 µM

Request: Data request, read-out TGI, for CC[C@H]1OC(=O)[C@H](C)[C@@H](O[C@H]2C[C@@](C)(OC)[C@@H](O)[C@H](C)O2)[C@H](C)[C@@H](O[C@@H]2O[C@H](C)C[C@H](N(C)C)[C@H]2O)[C@](C)(OC)C/C(C)=C2/O[C@@]1(C)C=C2C
Response: 3.26 µM

Request: Data request, read-out TGI, for CC(=O)N1C(Nc2nccs2)CCN1c1ccccc1 (centres undefined)
Response: > 10 µM

---

Give measured TGI for each item. Keep answers brief.
- System: SNB-75 CNS
- protocol.description: NCI tumour cell line growth inhibition, 48 h

Request: Data request, read-out TGI, for O=C1c2c(Br)sc(Br)c2[C@@H](O)[C@H]1O
Response: 31.6 µM

Request: Data request, read-out TGI, for COc1ccc(-c2cc(/C=C/C(=O)c3ccc(N)cc3)[nH]n2)cc1
Response: 11.4 µM

Request: Data request, read-out TGI, for C=C1C(=O)O[C@H]2C1C[C@H](O)[C@@]1(C)OC1CC[C@@]1(C)O[C@H]21 (some centres undefined)
Response: > 100 µM

Request: Data request, read-out TGI, for Cc1ccc(C2CC(c3ccc(Nc4ccnc5cc(Cl)ccc45)cc3)=NN2C=O)cc1 (centres undefined)
Response: > 100 µM

Request: Data request, read-out TGI, for O=C1Nc2ccc3c(c2/C1=C\c1cc2c(cc1Br)OCO2)OCO3
Response: 1.41 µM

Request: Data request, read-out TGI, for COc1ccc2c(c1OC)O/C(=C\c1ncc([N+](=O)[O-])n1C)C2=O
Response: 6.85 µM

Request: Data request, read-out TGI, for COC(=O)/C=C(\C)CCC1SC1(C)C (centres undefined)
Response: > 100 µM

Request: Data request, read-out TGI, for CCCc1nc2c(n1CC)C(=O)c1ccccc1C2=O
Response: > 100 µM

Request: Data request, read-out TGI, for CCOC(=O)c1c(NC(=O)c2ccc(Cl)cc2)sc2c(CN(C)C)c(O)ccc12
Response: 19 µM

These measurements were taken from PubChem BioAssay (NCI).
